# Tested on: OVCAR-4 ovarian
# testProtocol: NCI-60 one-dose screen, 48 h (100 = growth as untreated, 0 = no growth, -100 = all killed)
# testConditions: 10 µM unless noted
The panel holds about 83,000 compounds, 20% with a hit somewhere; the sample as a whole holds those more often.
measurementType: growth (%)
Return type: number; implicit unit %.

[Q] GET /values?readout=growth&item= COC(=O)[C@@H](C)C[C@H](Cc1cn(C)c2ccccc12)NC(=O)c1csc([C@@H](C[C@H](C(C)C)N(C)C(=O)[C@@H](NC(=O)[C@H]2CCCCN2C)C(C)C)OC(C)=O)n1
[A] 50.5

[Q] And the next one, CC[C@H](NC(=O)[C@H]1CCCCN1C)C(=O)N(C)[C@H](C[C@@H](OC(C)=O)c1nc(C(=O)N[C@@H](Cc2ccccc2)C[C@H](C)C(=O)O)cs1)C(C)C ?
[A] 43.5

[Q] Another compound to look at: C1CCC2(CC1)OOCNCOO2
[A] 112

[Q] Also, COc1ccc(O)c(CNC(=O)CN2CCCC2=O)c1 please.
[A] 103

[Q] Another compound to check: C[C@@]12CC[C@@H](O)C[C@@H]1CC[C@H]1[C@H]2CC[C@@]2(C)[C@H](c3ccc(=O)oc3)CC[C@@]12O
[A] -76.3

[Q] Field entry: CC(C)CCC(=O)O[C@H]1CC[C@H]2[C@@H]3CCC4=CC(=O)CC[C@]4(C)[C@H]3CC[C@]12C
[A] 103

[Q] Could you do the same for COc1cc2c(cc1OCCCn1c(-c3ccccn3)nc3ccccc31)N=C[C@@H]1CCCN1C2=O , please?
[A] 15.6

[Q] Next: COc1cc2ncnc(Nc3ccc(F)c(Cl)c3)c2cc1OCC(=O)N1CCN(C)CC1
[A] 79.5

[Q] Same lookup for CCOC(=O)[C@@H](C)C[C@H](Cc1ccccc1)NC(=O)c1nc([C@@H](C[C@H](C(C)C)N(C)C(=O)[C@@H](NC(=O)[C@H]2CCCCN2C)C(C)C)OC(C)=O)sc1CCOCc1ccccc1 , please.
[A] 14.9

[Q] How about this compound: N#C[S-].[Au+].c1ccc(CN2[CH-]N(Cc3ccccc3)C(c3ccccc3)=C2c2ccccc2)cc1
[A] 19.4

[Q] Entry O=C1NC(=O)C(=Cc2cn(CCCCCCn3c4ccccc4c(=O)c4ccccc43)c3ccccc23)C(=O)N1 please
[A] 85.8

[Q] Let us now turn to COc1ccc(/C=C\c2cc(OC)c(OC)c(OC)c2)cc1OCC(=O)Nc1nc2ccc(OC(F)(F)F)cc2s1
[A] 64.4

[Q] Same question, Clc1ccc(COC(Cn2ccnc2)c2ccc(Cl)cc2Cl)cc1 (configuration not stated) this time
[A] 54

[Q] Entry to check: Fc1ccc2c(c1)c(-c1nc(-c3c[nH]c4ncccc34)cs1)cn2CCCCN1CCCCC1
[A] -23.8

[Q] Now this one: Cn1cccc1C1CC(=O)N(CCC[Se]C#N)C1=O (configuration not stated)
[A] 31.2

[Q] Try this compound next: O=C(O)C1C(C(=O)O)C2(Cl)C(Cl)=C(Cl)C1(Cl)C2(Cl)Cl.[Hg] (configuration not stated)
[A] 108

[Q] Next entry: ClCCN(CCCl)c1ccc(/C=N/Nc2ncnc3nc[nH]c23)cc1
[A] 80.3

---

# System: 786-0 renal
# testProtocol: NCI-60 one-dose screen, 48 h (100 = growth as untreated, 0 = no growth, -100 = all killed)
# testConditions: 10 µM unless noted
Compounds without any hit were thinned out: in the full panel of roughly 83,000, 20% have a hit.
Record form. Attribute: growth. Fill in for each entry.
Just the number please, in %, no unit attached.

[Q] What value of measured growth is listed for CC[C@H](C)[C@H](NC(=O)C12C3C4C1C1C2C3C41NC)C(=O)N(C)[C@H](C[C@@H](OC(C)=O)c1nc(C(=O)N[C@@H](Cc2ccccc2)C[C@H](C)C(=O)OC)cs1)C(C)C (stereo partly drawn) ?
[A] 19.1

[Q] What about CN1CCC(O)(c2ccc(F)cc2)C(C(=O)c2ccc(F)cc2)C1 (stereo not drawn) ?
[A] 102

[Q] Note, next up: CCC(O)(CN)c1ccccc1 (stereo not drawn)
[A] 97.8

[Q] Do the same for C#Cc1ccc2c(c1)C(c1ccccc1)=NCC(=O)N2C please
[A] 59

[Q] Try this compound next: C=CC1=C[C@@H]2[C@@H]3O[C@]4(CC[C@H](O4)[C@@H](C)C[C@@H](O)C3=O)C[C@H](O)C3=NCC[C@@]32CC1
[A] -28.3

[Q] Now this one: COc1ccc(C/C(C)=C(\c2ccc(OCCN3CCOCC3)cc2)c2ccc(OC(=O)Cc3ccccc3)cc2)cc1
[A] -94.7

[Q] Same lookup for Clc1ccc(N2COOC3(OOC2)C2CC4CC(C2)CC3C4)cc1 , please.
[A] -4.34

[Q] Try this compound too: C1CCC([PH+](C2CCCCC2)C2CCCCC2[PH+](C2CCCCC2)C2CCCCC2)CC1.[Au].[CH-]1CCCCC1CC1CCCC[N-]1 (stereo not drawn)
[A] -89.6

[Q] Check COC(=O)[C@@H](C)C[C@H](Cc1ccccc1)NC(=O)c1csc([C@@H](C[C@H](C(C)C)N(C)C(=O)[C@@H](NC(=O)[C@H]2CCCCN2C)C(C(F)(F)F)C(F)(F)F)OC(C)=O)n1 too.
[A] -5.39

[Q] What do we get for CC1=C(CN)C2=C(C)C3(CC3)[C@@](C)(O)C(=O)C2=C1 ?
[A] 99

[Q] Check COc1ccc2c(c1)c(-c1nc(-c3c[nH]c4ncccc34)cs1)cn2CCN1CCOCC1 too.
[A] 55.5

[Q] Then what about the compound Brc1ccc2c(c1)c(-c1nc(-c3c[nH]c4ncccc34)cs1)cn2CCN1CCOCC1 ?
[A] 67.5

[Q] CN1C(=O)C(=Cc2cn(Cc3ccccc3)c3ccccc23)C(=O)N(C)C1=O ?
[A] 93.9

[Q] Check CC(C)CCC1(CCCl)C(=O)NC(=O)NC1=O too.
[A] 96.1

[Q] Please do the same for CC(=O)OCC1O[C@@H]([S-])C(OC(C)=O)[C@H](OC(C)=O)[C@@H]1OC(C)=O.[Au+].c1ccc(CN2[CH-]N(Cc3ccccc3)C(c3ccccc3)=C2c2ccccc2)cc1 as well.
[A] 40.1

[Q] // repeat for CCOP(=O)(Cc1ccc(C#N)cc1)OCC and report
[A] 101

[Q] Item: N#CC1(C#N)C(c2ccc(N(CCCl)CCCl)cc2)OC23CCCCC2C1(C#N)C(=N)O3 (stereo not drawn)
[A] 88.6

[Q] Entry to check: COc1cc(/C=C\c2cc(OC)c(OC)c(OC)c2)cc(NS(=O)(=O)c2cccc(Cl)c2)c1OC
[A] 6.56

[Q] Can you check ClCCN(CCCl)c1ccc(-n2cnc3c(Cl)ncnc32)cc1 next?
[A] 106

[Q] What about CC(=O)OC1CCC2(C)C(CCC3C2CC(=O)C2(C)C3CC(Sc3ccc(N(CCCl)CCCl)cc3)C2C(C)=O)C1 (stereo not drawn) ?
[A] 82.6

[Q] Same read-out for CCOC(=O)N[C@H]1CCc2c(Br)c(OC)c(OC)c(OC)c2-c2ccc(SC)c(=O)cc21 ?
[A] 9.3

[Q] Field entry: COC1OC(CO)C(O)C(O)[CH]1[Hg][O]C(C)=O (stereo not drawn)
[A] 106

[Q] Can you check Cc1ccc(S(=O)(=O)C(Cl)(Cl)Cl)cc1 next?
[A] 88.5

[Q] Same for CC1(C)N=C(N)N=C(N)N1c1ccc(CCCCc2ccc(Cl)c(S(=O)(=O)F)c2)c(Cl)c1
[A] -20.2

[Q] // same read-out, input: C/C(=C\c1cc(C(F)(F)F)nn1CCNC(=O)OC(C)(C)C)[C@@H]1C[C@@H]2O[C@]2(C)CCC[C@H](C)[C@H](O)[C@@H](C)C(=O)C(C)(C)[C@@H](O)CC(=O)O1
[A] 67.8

[Q] Can you check CCN(CC)CCOC(=O)C(OC(C)C)(c1ccccc1)c1ccccc1 next?
[A] 88.2

[Q] Same read-out for COc1ccc(C(O)(C(=O)O)c2ccc(OC)cc2)cc1 ?
[A] 94.8

[Q] Quick one: COc1cc(C=Nc2cc(Cl)cc(Cl)c2)ccc1N(CCCl)CCCl
[A] 107

[Q] Try this compound next: O=C1NC(=O)C(=Cc2cn(CCCCCCn3c4ccccc4c(=O)c4ccccc43)c3ccccc23)C(=O)N1
[A] 96.8

[Q] Subsequent entry: CCCCCCCCCCCCCCCCCC1OC[C@H](COC(=O)O[C@@H](C(=O)O[C@H]2C[C@@]3(O)[C@@H](OC(=O)c4ccccc4)[C@@H]4[C@]5(OC(C)=O)CO[C@@H]5C[C@H](O)[C@@]4(C)C(=O)[C@H](OC(C)=O)C(=C2C)C3(C)C)[C@@H](NC(=O)c2ccccc2)c2ccccc2)O1 (stereo partly drawn)
[A] 91.2

[Q] COc1cc(/C=N/C2=C(C#N)C(c3ccco3)c3c(c4cc(C)ccc4oc3=O)O2)cc(OC)c1OC (stereo not drawn) , same question.
[A] 92.5

[Q] Same lookup for CC[C@H](C)[C@H](NC(=O)C12CC(NC(C)=O)(C1)C2)C(=O)N(C)[C@H](C[C@@H](OC(C)=O)c1nc(C(=O)N[C@@H](Cc2ccccc2)C[C@H](C)C(=O)OC)cs1)C(C)C , please.
[A] 16

[Q] Proceed to CCCCCSC1C2C(=O)C(Br)=CC13CCNc1c(O)c4c5c(c13)=[N+]2CCC=5C=N4 (stereo not drawn)
[A] -50.3
